target: wt H-Ras (Homo sapiens); construct: fused on or other part: N-terminal 6x histidine tag, used to tether to Ni-NTA lipids; PyMPO-maleimide dye on native cysteine(s); assay: SHG detection of conformational change of labeled wt H-Ras tethered to a supported lipid bilayer; conditions: cysteine-labeled H-Ras, serial dilutions, n=3; read-out: EC50 from SHG concentration response curve
Sequence (P01112 whole entry, the tested form may be a part): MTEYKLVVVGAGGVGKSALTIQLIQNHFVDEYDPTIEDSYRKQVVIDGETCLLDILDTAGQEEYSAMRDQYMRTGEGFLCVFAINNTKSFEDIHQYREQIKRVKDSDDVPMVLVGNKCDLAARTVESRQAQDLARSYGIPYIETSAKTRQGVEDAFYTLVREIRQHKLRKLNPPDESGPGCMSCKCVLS
endpoint.label: pEC50
Just so you know, pEC50 here is -log10 of the concentration in molar units; reply with that number alone.

Which pEC50 is listed for Oc1c(CN2CCN(c3ccccc3)CC2)cc(Br)c2cccnc12 ?
5.36

# credit: patent US9938560B2
